For each record, write down the corresponding TGI.
Tested on: SK-OV-3 ovarian
Assay: NCI tumour cell line growth inhibition, 48 h

Ask | Look up and report measured TGI for this entry: `O=C(Cc1ccc(Cl)cc1)Nc1ccc2oc(-c3ccccc3)nc2c1`
Reply | > 100 µM

Ask | Quickly give me recorded TGI for `O=C(NNCc1ccco1)c1cc2ccccc2[nH]1`
Reply | > 100 µM

Ask | Consider the compound Cc1ccc2c(c1)CC1(Cc3c(C)cccc3C1=O)C2=O (stereo not given) . State its measured TGI.
Reply | > 100 µM

Ask | Quickly give me recorded TGI for CC(=O)C(CN(Cc1ccccc1)Cc1ccccc1)C(c1ccccc1)c1c(O)c2ccccc2oc1=O (stereo not given)
Reply | > 100 µM

Ask | Please give the documented TGI of `CN(C)CCCN1c2ccccc2C(C)(C)c2ccccc21`
Reply | 29.1 µM

Ask | Specify TGI for CCCCCCCCCCCCCCCCOCC(CP(=O)([O-])OCC[n+]1ccccc1)OC (stereo not given) and stop.
Reply | 32.7 µM

Ask | Answer with the recorded TGI for the compound listed here: `S=C1CSc2c(ccc3ccccc23)N1`
Reply | > 100 µM

Ask | Output measured TGI for this item: O=C1C=CC2(O)OCCN(CCO)C2=C1 (stereo not given) (tested in a mixture with another compound)
Reply | > 100 µM

Ask | Using known records, supply TGI for `C[C@]12C[C@@H](c3ccccc3)Nc3ccccc3N1C(c1ccccc1)=NO2`
Reply | > 100 µM

Ask | For the compound CN1C(=O)C(CC(=O)O)NC1=S (stereo not given) , give its measured TGI value.
Reply | > 100 µM

Ask | Give the reported value of TGI for this record: CC(C)(C)OC(=O)N1CCC2(C)CC(=O)CC=C12 (stereo not given)
Reply | > 100 µM

Ask | Tell me its TGI given `Cc1ccc(NC(=O)C(=O)CC(=O)c2c(C)n([O-])c3ccccc3[n+]2=O)cc1` as the entry.
Reply | > 100 µM

Ask | Find the measured TGI of `COc1ccc(NC(=O)/C(=N/NC(N)=S)C2C(=O)NC(=S)NC2=O)c(OC)c1` and report it.
Reply | > 100 µM

Ask | Please give measured TGI of the following entry: `COc1ccc(/C=C(\C#N)n2nnc3ccccc32)cc1`
Reply | > 40.1 µM

Ask | Please supply the value of reported TGI for the item `COc1cc(Cl)cc(-c2nn(-c3cccc(NC(=O)Nc4cc(C(F)(F)F)cc(C(F)(F)F)c4)c3)cc2-c2ccncc2)c1`
Reply | 6.68 µM

Ask | Recall and state the measured TGI for `CC1(C)C/C(=N/O)c2c(nc3ccc4ccccc4c3c2-c2ccc(Cl)cc2)C1` .
Reply | 34.7 µM

Ask | Answer with reported TGI of C=CCc1ccccc1CC1(OCC)OC(=O)c2ccccc21 (stereo not given)
Reply | > 100 µM

Ask | // Input: `Cc1ccc(N=Nc2ccc(N)cc2C)c(S(N)(=O)=O)c1` . Output its TGI only.
Reply | > 100 µM

Ask | State its TGI for this compound: C[n+]1c2ccccc2c(NC(CS)C(=O)O)c2ccccc21 (stereo not given)
Reply | 61 µM

Ask | Tell me TGI reported for NC(=O)C1Cc2cc3c(cc21)OCO3 (stereo not given)
Reply | > 100 µM

====

Test system: HL-60(TB) leukemia
Assay: NCI tumour cell line growth inhibition, 48 h; in the data active = GI50 below about 0.43 µM; inactive = the rest
Just give me one of these, please: active, inactive

Ask | GET /call?item= `Oc1ccccc1CNCC12CC3CC(CC(C3)C1)C2` returns the recorded outcome of this test.
Reply | inactive

Ask | How did this test come out for `Clc1ccc2nnnn2n1` ?
Reply | inactive

Ask | What did this assay record as the result for `COc1cc2c(cc1OCCCCCOc1ccc(-n3c(C)nc4ccccc4c3=O)cc1)N=C[C@@H]1CCCN1C2=O` ?
Reply | active

Ask | So what was the verdict on CC(C)COCC(CN(Cc1ccccc1)c1ccccc1)N1CCCC1 (stereo not given) in this test?
Reply | inactive

Ask | Please state the recorded outcome for this molecule: `COc1ccccc1N1CCN(CCc2c[nH]c3cc4c(cc23)OCO4)CC1`
Reply | inactive

Ask | Could you kindly confirm the outcome this assay logged for `O=P(CCCCP(=O)(c1ccccc1)c1ccccc1)(c1ccccc1)c1ccccc1.[Cl][Sn]([Cl])([c]1ccccc1)[c]1ccccc1` ?
Reply | inactive

Ask | Just curious, what result did Cc1ccc2c(c1)C(C)Cc1c(Cl)ncnc1N2C (stereo not given) get here?
Reply | inactive

Ask | // outcome(item) with item = `C=C(C)[C@@H]1CC[C@]2(C)[C@H](CC=C3[C@@H]4[C@@H](C)[C@H](C)CC[C@]4(C(N)=O)CC[C@]32C)[C@@]1(C)CCC#N`
Reply | inactive

Ask | Could you please tell me the result logged for `COc1ccc(-n2cc(-c3cc(OC)c(OC)c(OC)c3)nc2SCc2ccccc2)cc1OC` in this assay?
Reply | inactive

Ask | Please let me know the test result on file for N#CC1=C(N)Oc2c(sc3c(Br)cccc23)C1c1ccc(Br)cc1 (stereo not given) .
Reply | active

====

System: SNB-78 CNS
Experiment: NCI tumour cell line growth inhibition, 48 h
Answer each item with its documented TGI.

Ask | Return the recorded TGI value; entry: O=[N+]([O-])c1cc(C2SCc3nc4ccccc4n32)ccc1Cl (stereo not drawn)
Reply | 80.1 µM

Ask | Output measured TGI for this item: NC(CCC(=O)NC(CSC(=O)N(O)c1ccccc1)C(=O)NCC(=O)O)C(=O)O (stereo not drawn)
Reply | > 1000 µM

Ask | Give TGI for `Cc1[nH]c(=O)n2c(C)nnc2c1C(=O)Nc1cc(Cl)cc(Cl)c1`
Reply | 69.6 µM

Ask | Fill in reported TGI for this entry: COc1cc2c(cc1OC)[C@H]1C(COC(=O)c3ccccc3)CSC(=Nc3ccccc3)N1CC2 (stereo partly drawn)
Reply | > 100 µM

Ask | Note down TGI recorded for `C1CSC(=[N+]2CC[N+](=C3SCCS3)CC2)S1`
Reply | > 100 µM

Ask | Return TGI for the following compound: `C[n+]1ccc(Nc2ccc(NC(=O)c3ccc(Nc4cc[n+](C)c5ccc([N+](=O)[O-])cc45)cc3[N+](=O)[O-])cc2)cc1`
Reply | > 100 µM

Ask | Return value of TGI for input `Nc1c(C(=O)Nc2ccc(C3=NCCN3)cc2)cccc1C(=O)Nc1ccc(C2=NCCN2)cc1` , no commentary.
Reply | > 100 µM

Ask | State its TGI: `CN(C)C=[N+]=[N-]`
Reply | > 100 µM

Ask | Recall and state the measured TGI for `CCN(CC)CCn1c2ccccc2c(=O)c2c(O)ccc(O)c21` .
Reply | > 60.2 µM

Ask | Report measured TGI; entry is `c1ccc2cc3[s+]snc3cc2c1`
Reply | > 100 µM

Ask | Return TGI for the following compound: `C[N+]1(C)C/C(=C\c2ccccc2)C(=O)/C(=C/c2ccccc2)C1`
Reply | > 100 µM

Ask | Please give measured TGI of the following entry: `Cn1c(Cl)cn2c3nc4ccccc4nc3c(=O)c(C#N)c12`
Reply | > 100 µM

Ask | Specify TGI for `N#CCCN(c1ccc(C=Nc2ccccc2Cl)cc1)S(=O)(=O)c1ccccc1` and stop.
Reply | > 100 µM

====

System: SN12C renal
Experiment: NCI tumour cell line growth inhibition, 48 h
I'd be grateful if you could share measured TGI for these entries.

Ask | Given `C=C1C(=O)O[C@H]2[C@H]1CCC(/C=N/c1ncc(Br)cc1N)=C\CC[C@@]1(C)O[C@@H]21` , report its TGI on SN12C renal.
Reply | 5.41 µM

Ask | // fetch TGI for `CCCCN(Cc1ccccc1)C(=NC#N)N(Cc1ccccc1)Cc1ccccc1` ; system: SN12C renal
Reply | > 80.5 µM

Ask | Identify measured TGI obtained with SN12C renal for `COc1cc([C@H]2CC(=O)C[C@H](c3cc(OC)c(OC)c(OC)c3)C23C(=O)c2ccccc2C3=O)cc(OC)c1OC` .
Reply | > 100 µM

Ask | Report TGI on SN12C renal for this entry: O=C1C2C=CC(C2)C(c2ccc(O)cc2)N1O (centres undefined)
Reply | > 100 µM

Ask | Look up and report measured TGI (SN12C renal) for the following compound: CC1=NN(C(=O)CC(=O)NC(=O)CC(=O)Nc2ccccc2F)C(=O)C1N=Nc1ccc([N+](=O)[O-])cc1 (centres undefined)
Reply | > 100 µM

Ask | // output TGI; input `Cc1ccc(C(=O)Nc2ccc(CP(=O)(O)O)cc2CP(=O)(O)O)cc1NC(=O)c1cccc(NC(=O)Nc2cccc(C(=O)Nc3cc(C(=O)Nc4ccc(CP(=O)(O)O)cc4CP(=O)(O)O)ccc3C)c2)c1` ; system SN12C renal
Reply | > 100 µM

Ask | Give reported TGI for `COc1ccc(S(=O)(=O)N/N=C/c2cc(I)cc([N+](=O)[O-])c2O)cc1OC` (SN12C renal)
Reply | > 100 µM

Ask | Give TGI only, for N=[N+]=CC(=O)CCC(NC(=O)C(CCC(=O)C=[N+]=N)NC(=O)CCC(N)C(=O)O)C(=O)O (centres undefined) , using SN12C renal data.
Reply | > 100 µM

Ask | Report its TGI with SN12C renal as the test system: `Nc1ccc(S(=O)(=O)Nc2ccc(Nc3c4ccccc4nc4ccccc34)cc2)cc1`
Reply | 0.628 µM

Ask | Report its TGI with SN12C renal as the test system: COc1ccc2c(c1)Oc1cc(O)ccc1[C@@H]2c1ccccc1C(=O)NC(C)c1ccccc1 (some centres undefined)
Reply | 28.6 µM

Ask | Provide TGI, tested on SN12C renal, for CC(C)(C)OC(=O)N1CCC2(C)CC(=O)CC=C12 (centres undefined) .
Reply | > 100 µM

Ask | Quote TGI with test system SN12C renal for `O=P(CCCCP(=O)(c1ccccc1)c1ccccc1)(c1ccccc1)c1ccccc1.[Cl][Sn]([Cl])([c]1ccccc1)[c]1ccccc1`
Reply | 5.76 µM

Ask | Report value only: TGI, SN12C renal, COc1cc(/C=C2\C(=O)N(c3ccccc3Cl)C(c3ccccc3)S2(=O)=O)cc(OC)c1OC (centres undefined)
Reply | 60.6 µM

Ask | Please tell me the measured TGI for `COc1ccc2c(c1)-c1[nH]c3ccc(OC)cc3c1CC2` ; system: SN12C renal.
Reply | 29.3 µM
